Test: Quartz crystal microbalance weight loss of amine-treated iron surface in unstirred 0.5 M sodium sulfate solution
Conditions: amine-treated iron surface, 6.5 hours in unstirred 0.5 M Na2SO4 (pH=5.8)
observable: percent wt. loss (%)
One number for each entry, in %.

The following molecules have reported results that may help.
>>> df
                        molecule  test_result
0   CCCCNCCCC [N,N-dibutylamine]          9.3
1          C1CCNCC1 [piperidine]         0.57
2          C1COCCN1 [morpholine]         8.87
3   NCCCCCO [5-amino-1-pentanol]        4.106
4            CNC [dimethylamine]        0.793
5  COCCCN [3-methoxypropylamine]            0

Kindly review the next molecule as well.
Which percent wt. loss reading was recorded for the molecule C1CCC2=NCCCN2CC1 [DBU, 1,8-diazabicyclo[5.4.0]undec-7-ene] ?
0
